Experimental System: Human complement C1s enzyme (Homo sapiens (Human), UniProt P09871)
Sequence (P09871 438-688 limits assumed): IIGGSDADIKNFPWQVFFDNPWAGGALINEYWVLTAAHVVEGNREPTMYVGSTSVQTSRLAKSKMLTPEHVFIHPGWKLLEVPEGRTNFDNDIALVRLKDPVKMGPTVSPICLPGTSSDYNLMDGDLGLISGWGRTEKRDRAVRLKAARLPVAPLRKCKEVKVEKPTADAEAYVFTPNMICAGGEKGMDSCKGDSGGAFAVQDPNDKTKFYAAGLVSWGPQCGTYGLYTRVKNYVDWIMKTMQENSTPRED
Sequence (P09871 16-437 partner limits assumed): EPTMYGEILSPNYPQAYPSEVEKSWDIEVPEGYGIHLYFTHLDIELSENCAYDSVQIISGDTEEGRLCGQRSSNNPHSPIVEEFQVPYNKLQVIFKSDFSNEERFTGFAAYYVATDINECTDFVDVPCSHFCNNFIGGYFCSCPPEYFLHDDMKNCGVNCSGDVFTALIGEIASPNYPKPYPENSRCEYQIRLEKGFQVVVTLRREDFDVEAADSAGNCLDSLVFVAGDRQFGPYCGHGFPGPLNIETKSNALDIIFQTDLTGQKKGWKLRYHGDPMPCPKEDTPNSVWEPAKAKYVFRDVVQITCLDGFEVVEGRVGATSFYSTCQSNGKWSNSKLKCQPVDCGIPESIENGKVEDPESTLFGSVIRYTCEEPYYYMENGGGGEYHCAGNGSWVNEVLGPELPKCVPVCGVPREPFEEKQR
Protocol Notes: Human C1s enzyme assay
Assay type: biochemical
Condition Set: Human complement C1s enzyme 1.16 nM, substrate Z-L-Lys-SBzl 100 μM, assay of Example 3; read-out: IC50 (Stars)
Attribute Measured: IC50

Exam item: Fill in the blank: the reported IC50 of `C[C@H](NC(=O)c1ccc(-c2ccc(F)cc2F)cc1)C(=O)N1CC2(C[C@H]1C(=O)NCc1cc(C(=N)N)cs1)OCCO2` is ____.
Marked response: < 100 nM

Exam item: Fill in the blank: the reported IC50 of `O=C(NCC(=O)N1CC2(C[C@H]1C(=O)NCc1cc(Nc3nccs3)cs1)OCCO2)c1ccc(Oc2ccc(F)cc2)cc1` is ____.
Marked response: > 1000 nM

Exam item: Fill in the blank: the reported IC50 of `O=C(NCC(=O)N1CC2(C[C@H]1C(=O)NCc1cc(NCCO)cs1)OCCO2)c1ccc(Oc2ccc(F)cc2)cc1` is ____.
Marked response: > 1000 nM

Exam item: Fill in the blank: the reported IC50 of `NCCCC(=O)Nc1csc(CNC(=O)[C@@H]2CC3(CN2C(=O)CNC(=O)c2ccc(Oc4ccc(F)cc4)cc2)OCCO3)c1` is ____.
Marked response: > 1000 nM

Exam item: Fill in the blank: the reported IC50 of `C[C@@H](NC(=O)[C@@H]1C[C@@H](S(C)(=O)=O)CN1C(=O)CNC(=O)c1ccc2cc3ccccc3cc2c1)c1cc(C(=N)N)cs1` is ____.
Marked response: < 100 nM

Exam item: Fill in the blank: the reported IC50 of `C[C@H](NC(=O)c1ccc(-c2ccc(F)cc2)cc1)C(=O)N1CC2(C[C@H]1C(=O)NCc1cc(C(=N)N)cs1)OCCO2` is ____.
Marked response: < 100 nM

Exam item: Fill in the blank: the reported IC50 of `N=C(N)c1csc(CNC(=O)[C@@H]2CC3(CN2C(=O)CN2Cc4cc(-c5ccc(F)cc5F)ccc4C2=O)OCCO3)c1` is ____.
Marked response: < 100 nM
